Value source: patent US7759373B2

Listed here: items and their measured EC50.
- System: isolated rabbit urinary bladder
- protocol notes: Relaxation effect on potassium-induced contraction of isolated rabbit urinary bladder
- Assay type: cell-based
- assay conditions: Oryctolagus cuniculus; 50% relaxation concentration; high-K+ (30 mM) pre-contracted rabbit bladder strips; relaxation as percentage of the maximum produced by 0.1 mM papaverine; read-out: EC50 value range
- Protocol: Relaxation effect on potassium-induced contraction of isolated rabbit urinary bladder Urinary bladder was isolated from Male NZW rabbits (2.0-3.5 kg) and immersed in ice-cold Krebs-bicarbonate solution (in mM: 118 NaCl, 4.7 KCl, 1.2, 2.5 CaCl2, MgSO4, 1.2 KH2PO4, 11 glucose, 25 NaHCO3). […] Accordingly, preparations were stretched with an initial tension of 2.0±1.0 g, and changes in isometric tension were measured by force-displacement transducer. […]
measure name: EC50

INSERT INTO assay_data (compound, tgt, measure_name, result) VALUES
  ('CN(C)c1ncc(-c2nc(-c3ccc(Cl)cc3)c(CC(=O)O)s2)cn1', 'isolated rabbit urinary bladder', 'EC50', '500 to 1000 nM'),
  ('CCCc1nc(-c2cccc(F)c2)[nH]c1-c1ccccc1', 'isolated rabbit urinary bladder', 'EC50', '1000 to 3000 nM'),
  ('O=C(O)Cc1nc(-c2ccc3c(c2)CCO3)oc1-c1ccc(Cl)s1', 'isolated rabbit urinary bladder', 'EC50', '500 to 1000 nM'),
  ('CCCc1nc(-c2ccccc2)[nH]c1-c1ccccc1', 'isolated rabbit urinary bladder', 'EC50', '1000 to 3000 nM'),
  ('Cc1nc(-c2csc(Cl)c2)[nH]c1-c1cccnc1', 'isolated rabbit urinary bladder', 'EC50', '1000 to 3000 nM'),
  ('C[S+]([O-])Cc1nc(-c2ccc(F)cc2)[nH]c1-c1ccsc1 (centres unmarked)', 'isolated rabbit urinary bladder', 'EC50', '500 to 1000 nM'),
  ('O=C(O)Cc1sc(-c2cc3ccccc3s2)nc1-c1ccc(Cl)cc1', 'isolated rabbit urinary bladder', 'EC50', '1000 to 3000 nM'),
  ('CCOc1ccc(-c2nc(-c3ccc(Cl)s3)c(CC(=O)O)s2)cn1', 'isolated rabbit urinary bladder', 'EC50', '≤ 500 nM');

----------
- Tested on: rhythmic bladder contractions induced by substance P
- protocol notes: Inhibitory effect on the rhythmic bladder contractions induced by substance P in anesthetized rats
- Assay type: in vivo, rat
- assay conditions: time during which frequency of rhythmic contraction was completely inhibited, 0.25 mg/kg of the compound, substance P infusion
- Experimental: Inhibitory effect on the rhythmic bladder contractions induced by substance P in anesthetized rats For the experiments, Sprague-Dawley female rats (9 to 12 weeks old) weighing between 200 to 300 g were used. After urethane anesthetization (subcutaneously administered with a dose of 1.2 g/kg), cannulae were placed in both right and left femoral veins. One intravenous catheter was used for administration of compounds, and the other was for the substance P (0.33 μg/kg/min) infusion. […]
measure name: 100% inhibition time range

INSERT INTO assay_data (molecule, result) VALUES
  ('CONC(=O)Cc1nc(-c2ccc(F)cc2)oc1-c1ccsc1 [Preparation Example 373]', 'C (A≧20>B≧10>C (minute))'),
  ('COCc1[nH]c(-c2ccc(Cl)s2)nc1-c1cccnc1.Cl.Cl [Preparation example 120]', 'C (A≧20>B≧10>C (minute))'),
  ('CCc1nc(-c2ccc(F)cc2)[nH]c1-c1ccc(C)nc1 [Preparation example 47]', 'B (A≧20>B≧10>C (minute))'),
  ('CCOC(=O)Cc1nc(-c2ccc(F)cc2)oc1-c1ccccc1 [Preparation Example 296]', 'C (A≧20>B≧10>C (minute))'),
  ('O=C(O)Cc1nc(-c2ccc3c(c2)CCO3)oc1-c1ccc(Cl)s1 [Preparation Example 282]', 'B (A≧20>B≧10>C (minute))'),
  ('O=C(O)Cc1nc(-c2ccc(F)cc2)oc1-c1ccc(Br)s1 [Preparation Example 256]', 'C (A≧20>B≧10>C (minute))'),
  ('O=C(O)Cc1nc(-c2ccccc2O)oc1-c1cccs1 [Preparation Example 277]', 'C (A≧20>B≧10>C (minute))'),
  ('O=C(Cc1nc(-c2ccc(F)cc2)oc1-c1ccsc1)NS(=O)(=O)c1cccnc1 [Preparation Example 371]', 'C (A≧20>B≧10>C (minute))');
